# study.system: CD3 epsilon/delta heterodimer (Homo sapiens, UniProt P07766;P04234 P07766:23-126,P04234:22-105)
# Sequence (P07766 23-126, stated change not applied, chain 1 of 2): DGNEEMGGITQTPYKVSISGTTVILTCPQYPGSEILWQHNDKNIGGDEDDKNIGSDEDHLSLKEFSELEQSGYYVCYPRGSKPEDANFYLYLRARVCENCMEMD
# Sequence (P04234 22-105, stated change not applied, chain 2 of 2): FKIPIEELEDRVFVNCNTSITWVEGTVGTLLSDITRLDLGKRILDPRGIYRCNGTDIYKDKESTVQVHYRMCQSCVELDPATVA
# method.summary: SPR; steady state; kinetic 2.7 nM (Table 6)
# experimental.context: tags: C-terminal human IgG1 Fc fusion, AcroBiosystems; chain copies: heterodimer 1:1 (inferred); label: 5'-biotin-TEG
# Experimental: Binding affinity measurements were performed using a BIAcore T200 instrument (GE Healthcare). […] The interactions were measured in the “Single Kinetics Cycle” mode at a flow rate of 30 μl/min and by injecting different concentrations of human CD3 ε/γ, CD3 ε/δ, IgG1 Fc and mouse CD3 ε/δ (Sino Biological). […] All kinetic data of the interaction were evaluated using the BIAcore T200 evaluation software. […]
measured.quantity: Kd (nM)

>>> df
                                     binder  number
0  CGACCACAGGGGTTTGGCTTCGGGACTGGCGGTGGGCACT (ssDNA) [CELTIC_22s (printed CELTIC_CD3_22)]     164
